pIC50: −log10 of the molar value.
Let's go through some pIC50 measurements on Dopamine D2 receptor Gi1 activation (Homo sapiens) together.
Sequence (P14416 whole entry): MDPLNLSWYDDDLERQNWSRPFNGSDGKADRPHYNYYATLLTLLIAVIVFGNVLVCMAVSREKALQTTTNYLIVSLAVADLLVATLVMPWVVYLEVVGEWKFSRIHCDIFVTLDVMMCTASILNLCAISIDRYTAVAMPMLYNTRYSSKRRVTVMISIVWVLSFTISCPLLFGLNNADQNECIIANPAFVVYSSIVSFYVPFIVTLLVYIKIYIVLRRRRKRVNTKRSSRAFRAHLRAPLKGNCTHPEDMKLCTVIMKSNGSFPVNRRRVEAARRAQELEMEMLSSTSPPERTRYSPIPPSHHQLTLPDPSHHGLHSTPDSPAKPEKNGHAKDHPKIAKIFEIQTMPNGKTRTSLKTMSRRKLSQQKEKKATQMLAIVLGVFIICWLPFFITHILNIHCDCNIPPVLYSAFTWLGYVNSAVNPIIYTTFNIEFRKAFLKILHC

{"compound": "Fc1ccc(C(SCCNCCCc2ccccc2)c2ccc(F)cc2)cc1", "modifier": "<", "pIC50": 5.00}
{"compound": "CCCCN1C2CCC1CC(OC(c1ccc(F)cc1)c1ccc(F)cc1)C2 (stereo not shown)", "modifier": "=", "pIC50": 5.70}
{"compound": "CCc1cc(Cl)c(OC)c(C(=O)NC[C@@H]2CCCN2CC)c1O [eticlopride]", "modifier": "=", "pIC50": 8.68}
{"compound": "NC(=O)C[S@@+]([O-])C(c1ccccc1)c1ccccc1 [(R)-2, reference compound]", "modifier": "<", "pIC50": 5.00}
